B1: LINE1-mini (parent)
chain: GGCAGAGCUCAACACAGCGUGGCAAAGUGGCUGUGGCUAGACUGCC

Variants of: B1
Protocol text: self-cleavage, relative activity (ratio to wild type); higher = more cleavage; in vitro, sequencing; the parent is a self-cleaving ribozyme
This listing pairs variants with measured self-cleavage.

GGCAGAGUUCAACACAGCGUGGCAGAGUGGCUGUGGCUAGACUGCC [C8U A25G] = 0.13

# self-cleavage of GGCAGAGCUCAACUCAGCGUGGCAAAGUGGCUGUGGCUACACUGCC [A14U G40C] = 0.08

# self-cleavage of GGCAGAGCUCAACACAGCGUGGCAAAGUGGCUGCGGCUAGAUUGCC [U34C C42U] = 0.12

# self-cleavage of GGCAGUGCUCAACACUGCGUGGCAAAGUGGCUGUGGCUAGACUGCC [A6U A16U] = 0.11

# self-cleavage of GGCAGAGCUCGACGCAGCGUGGCAAAGUGGCUGUGGCUAGACUGCC [A11G A14G] = 0.02

# self-cleavage of GGCAGAGCUCAACACAGCGUGACCAAGUGGCUGUGGCUAGACUGCC [G22A A24C] = 0.48

# self-cleavage of GGCAGAGCUCAACACAGCGUGGCAAAGUGGCUGGGGCUAGUCUGCC [U34G A41U] = 0.17

# self-cleavage of GGCAGAGCUCAACACAGCGUGGCAAAGUGGGUGUGGCUAGACUGCC [C31G] = 0.1

src = the RNAGym collection of RNA variant scans (doi:10.7554/elife.90254)
